This section presents compounds with their documented %Inh values.
System: RSK1(Kin.Dom.1-N-terminal)
Construct: gene RPS6KA1
Conditions: concentration: 1 μM,replicates: in singlicate; n = 1;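 note: KINOMEscan kinase panel screen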

# compound, experimental_system, unit, %Inh
records = [
    ("O=C(Nc1n[nH]c2cc(-c3ccco3)ccc12)C1CC1", "RSK1(Kin.Dom.1-N-terminal)", "%", 16),
    ("Cn1ccc2ncnc(Oc3ccc(NC(=O)Nc4cncc(C(F)(F)F)c4)c(Cl)c3)c21", "RSK1(Kin.Dom.1-N-terminal)", "%", 0),
    ("COc1cc2nccc(Nc3ccc(Oc4ccccc4)cc3)c2cc1OC.Cl", "RSK1(Kin.Dom.1-N-terminal)", "%", 2),
    ("CC(C(=O)NC1CCN(c2ccnc(Nc3ccc(F)cc3)n2)C1)c1ccc(Cl)cc1 (centres unmarked)", "RSK1(Kin.Dom.1-N-terminal)", "%", 0),
    ("NC(=O)c1ccc(-c2cc3ncnc(SCC(=O)O)c3s2)cc1", "RSK1(Kin.Dom.1-N-terminal)", "%", 0),
]

###

Test system: PRKCE
Details: concentration: 1 μM,replicates: in singlicate; n = 1

# molecule, %Inh (%)
rows = [
    ("COc1cccc(C2=C(Nc3cccc(Cl)c3)C(=O)NC2=O)c1", 19),
    ("Cn1ccc2ncnc(Oc3ccc(NC(=O)Nc4cccc(C(F)(F)F)c4)c(Cl)c3)c21", 0),
    ("Cc1ccc(C(=O)Nc2ccc(Oc3ccc4nc(NC(=O)C5CC5)cn4c3)c(F)c2)c(=O)n1-c1ccccc1", 0),
    ("Cl.Nc1n[nH]c2cc(-c3ccccn3)ccc12", 0),
    ("CS(=O)c1ccc(-c2coc3ccc(-c4n[nH]c(=O)o4)cc23)cc1 (stereo not drawn)", 7),
    ("C[C@@H]1CCN(C(=O)N2CCCC2)C[C@@H]1N(C)c1ncnc2[nH]ccc12", 17),
    ("OCCn1cc(-c2cnc3nnn(Cc4ccc5ncccc5c4)c3n2)cn1", 49),
    ("COc1cc(Nc2nccc(N3CCC(NC(=O)c4cccc(C#N)c4)C3)n2)cc(OC)c1OC (stereo not drawn)", 7),
    ("O=C(NOCC1CC1)c1cc(Br)c(F)c(F)c1Nc1ccc(I)cc1Cl", 6),
    ("C[C@@H]1CNc2c(sc3ccc4nc(-c5ccc(O)cc5)ccc4c23)C(=O)N1", 46),
    ("CCNCC(Cc1ccccc1)NC(=O)c1cc(Br)c(-c2ccnc3[nH]ccc23)s1.Cl.Cl (stereo not drawn)", 94.5),
    ("FC(F)(F)c1cc(Br)cc(Nc2nccc(-c3cnn4ncccc34)n2)c1", 4),
    ("COc1cc2ncn(-c3cc(OCC4CCCCC4)c(C(N)=O)s3)c2cc1OC", 0),
    ("NC(=O)Nc1sc(-c2ccc(F)cc2)cc1C(N)=O", 17),
    ("CC(=O)Nc1nc2cnc(Nc3cc(NC(=O)c4cccc(CC(C)(C)C#N)c4)ccc3C)nc2s1", 0),
    ("O=C(Nc1ccc(Oc2ccc3nc(NC(=O)C4CC4)cn3n2)c(F)c1)c1cccn(-c2ccccc2)c1=O", 0),
    ("Cn1cc(-c2cccc3c(N)c(C(N)=O)nnc23)cn1", 10),
    ("CNC(=O)c1ccccc1Nc1nc(Nc2cccc(CS(C)(=O)=O)c2)ncc1C.O=CO", 77),
]
